# test.summary: protein stability index of a GFP-peptide fusion (yeast GPS) (PSI 1-4); higher = more stable; sorted into four equal gates, so the index is relative within each strain
# measurement.context: pdr5∆
assay.metric: protein stability index
Keep the answer to the number alone.

Recorded results for 5 sequences are shown here.
primary.sequence	assay.result
ENIEPLDPINLPLDSQD [PRP8]	2.97
NEVCLEKENRFEIVDRE [SMC4]	2.92
DIEIVRVNKNAPAVELH [FAS2]	3.08
QSKKLIEEKLSSFSKKT [YIL149C/MLP2]	3
NRIIKADDHASVQINVA [RPS21A]	3.05

Need protein stability index, item SAKAELEKLVDHHPEGL [PRE10]
2.91
